B1: SPACA3 (parent)
chain: FTSGFNAAALDYEADGSTNNGIFQ

Variants of: B1
EXPERIMENT_NOTES: protein stability index of a GFP-peptide fusion (GPS, HEK-293T) (PSI 1-6); higher = more stable;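 note: lentivirally expressed fusions sorted by FACS into six bins by GFP to DsRed ratio, PSI derived from sequencing read proportions per bin multiplied by bin number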
MEASUREMENT_CONTEXT: c terminus: a fixed tail appended
Reported protein stability index values are given for each entry in this list.
Please reply with the number alone, leaving off any unit.

Examples with answers:
- CHANGES: "F23W"
  DATA_VALUE: 1.64
- CHANGES: "T18P"
  DATA_VALUE: 1.83
- CHANGES: "T18F"
  DATA_VALUE: 1.78
- CHANGES: "T2W"
  DATA_VALUE: 2.91
- CHANGES: "N19Y"
  DATA_VALUE: 1.83

Consider the record given below.
input: Could you share which protein stability index value was measured for T2L ?
output: 2.78

Where these numbers come from: the supplement of paper PMC10567573
